Tested on: HL-60
Test: HL-60 differentiation potency
Format: cell-based
Settings: Homo sapiens
REPORTED_PROPERTY: EC50 (nM)

Sample answers from the record:
compound=C[C@H]1[C@@H](OCc2c(F)cc(C(=O)N[C@H]3CC[C@@H](C(=O)O)C3)cc2F)O[C@@H]2O[C@@]3(C)CC[C@H]4[C@H](C)CC[C@@H]1[C@@]24OO3 result_units=nM value_measured=31.3
compound=CO[C@H](C)[C@H](NC(=O)c1ccc(O[C@H]2O[C@@H]3O[C@@]4(C)CC[C@H]5[C@H](C)CC[C@@H]([C@H]2C)[C@@]35OO4)cc1)C(=O)O result_units=nM value_measured=412
compound=C[C@H]1[C@@H](Oc2ccc(C(=O)Nc3ccc(C(=O)O)cc3)cc2)O[C@@H]2O[C@@]3(C)CC[C@H]4[C@H](C)CC[C@@H]1[C@@]24OO3 result_units=nM value_measured=15.8
compound=C[C@H]1[C@@H](Oc2ccc(C(=O)N3C[C@H]4[C@@H]([C@H]3C(=O)O)C4(C)C)cc2)O[C@@H]2O[C@@]3(C)CC[C@H]4[C@H](C)CC[C@@H]1[C@@]24OO3 result_units=nM value_measured=80.3
compound=C[C@H]1[C@@H](Oc2ccc(CC(=O)N[C@H]3CC[C@H](C(=O)O)C3)cc2)O[C@@H]2O[C@@]3(C)CC[C@H]4[C@H](C)CC[C@@H]1[C@@]24OO3 result_units=nM value_measured=25.9

[a] C[C@H]1[C@@H](OCC2CCN(C(=O)C(=O)O)CC2)O[C@@H]2O[C@@]3(C)CC[C@H]4[C@H](C)CC[C@@H]1[C@@]24OO3
[b] C[C@H]1[C@@H](Oc2ccc(C(=O)N[C@H](C(=O)O)C(C)(C)O)cc2)O[C@@H]2O[C@@]3(C)CC[C@H]4[C@H](C)CC[C@@H]1[C@@]24OO3
Out of a and b , name the one with the higher EC50. Your answer should be the label of the entry you select.
a

Reference source: patent US20260242391A1
